clearance values, listed per item
experiment: Clearance in dog after iv administration; type: ADME, organism-based, Canis lupus familiaris; details: in vivo
measuredEndpoint: clearance (mL/min/kg)

>>> testresult("CC1=NC(=O)C(CCN(C(C)C)C(C)C)(c2ccccc2)C2CCCCN12 (stereo unspecified) [ACTISOMIDE]")
9
>>> testresult("Cc1cc(O)c(C(=O)N[C@@H](C(=O)N[C@@H]2C(=O)N3C(C(=O)O)=C(CSc4nnnn4C)CS[C@H]23)c2ccc(O)cc2)cn1 [CEFPIRAMIDE]")
5.1
>>> testresult("Cc1nc(=O)c(C#N)c(NCc2cccnc2)[nH]1")
11
>>> testresult("O=[N+]([O-])O[C@H]1CO[C@H]2[C@@H]1OC[C@H]2O[N+](=O)[O-] [ISOSORBIDE DINITRATE]")
180
>>> testresult("O=c1ccc2ccccc2o1")
22
>>> testresult("CC(C)N(CCC(C(N)=O)(c1ccccc1)c1ccccn1)C(C)C (stereo unspecified) [DISOPYRAMIDE]")
29
>>> testresult("CC(C)(C)S(=O)(=O)C[C@@H](Cc1ccccc1)C(=O)N[C@@H](Cc1cnc[nH]1)C(=O)N[C@@H](CC1CCCCC1)[C@@H](O)[C@@H](O)C1CC1")
25
>>> testresult("COCCOC(=O)C1=C(C)NC(C)=C(C(=O)OC(C)C)C1c1cccc([N+](=O)[O-])c1 (stereo unspecified)")
34
>>> testresult("Cn1c(=O)c2c(ncn2C)n(C)c1=O")
2.1
>>> testresult("O=C1NC(=O)C(c2ccccc2)(c2ccccc2)N1")
2.8
>>> testresult("Cc1cc(=O)n(-c2ccccc2)n1C [ANTIPYRINE]")
5.5
